Target: HDAC2 (Homo sapiens, UniProt Q92769)
Construct: host or cells: SH-SY5Y cells
Sequence (Q92769 whole entry): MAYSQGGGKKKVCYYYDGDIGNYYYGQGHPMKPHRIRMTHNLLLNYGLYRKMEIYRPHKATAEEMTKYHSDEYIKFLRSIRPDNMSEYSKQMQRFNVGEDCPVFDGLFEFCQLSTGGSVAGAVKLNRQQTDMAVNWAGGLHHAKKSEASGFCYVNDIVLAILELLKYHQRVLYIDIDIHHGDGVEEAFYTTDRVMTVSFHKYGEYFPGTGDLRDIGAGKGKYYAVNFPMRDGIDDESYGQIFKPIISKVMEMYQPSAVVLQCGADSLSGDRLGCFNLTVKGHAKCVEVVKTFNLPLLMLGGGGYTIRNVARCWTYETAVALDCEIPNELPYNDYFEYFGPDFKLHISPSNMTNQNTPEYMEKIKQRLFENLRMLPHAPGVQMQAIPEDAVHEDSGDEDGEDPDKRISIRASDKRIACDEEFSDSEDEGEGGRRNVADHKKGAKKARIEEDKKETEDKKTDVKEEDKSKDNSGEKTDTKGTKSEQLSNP
Assay: HDAC2 Enzymatic Inhibition Assay in SH-SY5Y Cell Lysate with an Exogenous Substrate (HDAC-Glo 2)
Format: cell-based
Settings: SH-SY5Y cells, five hours incubation, Table 3, class symbols
pIC50: −log10 of the molar value.
metric: pIC50

Recorded pIC50, per entry:
{"columns": ["structureNotation", "pIC50"],
 "data": [
  ["Cc1cnc(CC2CN(C(=O)Nc3nc(-c4ccc(F)cc4F)ccc3N)C2)nc1", "5.70 to 6.00"],
  ["Cc1cn(CC2CN(C(=O)Nc3nc(-c4ccc(F)cc4F)ccc3N)C2)cn1", "< 5.70"],
  ["Cc1cc(CC2CN(C(=O)Nc3nc(-c4ccc(F)cc4F)ccc3N)C2)nc(C)n1", "< 5.70"],
  ["Nc1ccc(-c2ccc(F)cc2)nc1NC(=O)N1CC(Cc2ncccn2)C1", "6.00 to 6.30"],
  ["COCc1ccc(CC2CN(C(=O)Nc3nc(-c4ccc(F)cc4)ccc3N)C2)nc1", "5.70 to 6.00"]
]}

Using the record for Nc1ccc(-c2ccc(F)cc2F)nc1NC(=O)N1CC(C(F)(F)c2ncccn2)C1 , state its measured pIC50.
5.70 to 6.00

Given Cc1cnc(CC2CN(C(=O)Nc3nc(-c4ccc(F)s4)ccc3N)C2)o1 , respond with its pIC50.
< 5.70

Identify the reported pIC50 for the following entry. Nc1ccc(-c2ccc(F)cc2)nc1NC(=O)N1CC(Cc2ccc(F)cn2)C1
< 5.70

* * *

Target: HDAC2 (Homo sapiens)
Construct: host or cells: SH-SY5Y cells
Experiment: HDAC2 Enzymatic Inhibition Assay in SH-SY5Y Cell Lysate with an Exogenous Substrate (HDAC-Glo 2)
Type: cell-based
Settings: SH-SY5Y cells, five hours incubation, Table 3, class symbols
Listing: IC50 of selected compounds

{"columns": ["compound", "targetOrSystem", "result"],
 "data": [
  ["Cn1ccnc1CC1CN(C(=O)Nc2nc(-c3ccc(F)cc3F)ccc2N)C1 [Compound 47]", "HDAC2 (Homo sapiens)", "1000 to 2000 nM"],
  ["CC(F)(F)c1cnc(CC2CN(C(=O)Nc3nc(-c4ccc(F)cc4)ccc3N)C2)nc1 [Compound 81]", "HDAC2 (Homo sapiens)", "> 2000 nM"],
  ["Cc1nccnc1CC1CN(C(=O)Nc2nc(-c3ccc(F)cc3F)ccc2N)C1 [Compound 16]", "HDAC2 (Homo sapiens)", "500 to 1000 nM"],
  ["Nc1ccc(-c2ccc(F)cc2)nc1NC(=O)N1CC(Cc2ccccn2)C1 [Compound 74]", "HDAC2 (Homo sapiens)", "1000 to 2000 nM"],
  ["COCc1cnc(CC2CN(C(=O)Nc3nc(-c4ccc(F)cc4)ccc3N)C2)nc1 [Compound 82]", "HDAC2 (Homo sapiens)", "1000 to 2000 nM"],
  ["Cc1cnc(CC2CN(C(=O)Nc3nc(-c4ccc(F)cc4F)ccc3N)C2)s1 [Compound 25]", "HDAC2 (Homo sapiens)", "> 2000 nM"],
  ["Cc1ccc(CC2CN(C(=O)Nc3nc(-c4ccc(F)cc4F)ccc3N)C2)cn1 [Compound 5]", "HDAC2 (Homo sapiens)", "> 2000 nM"],
  ["Cc1cncc(CC2CN(C(=O)Nc3nc(-c4ccc(F)cc4F)ccc3N)C2)n1 [Compound 13]", "HDAC2 (Homo sapiens)", "1000 to 2000 nM"],
  ["Nc1ccc(-c2ccc(F)cc2F)nc1NC(=O)N1CC(Cn2ccnc2)C1 [Compound 31]", "HDAC2 (Homo sapiens)", "> 2000 nM"],
  ["Nc1ccc(-c2ccc(F)cc2)nc1NC(=O)N1CC(Cn2cccn2)C1 [Compound 73]", "HDAC2 (Homo sapiens)", "1000 to 2000 nM"]
]}

Tell me its IC50 given Cc1cnc(CC2CN(C(=O)Nc3nc(-c4ccc(F)cc4)ccc3N)C2)nc1 [Compound 65] as the entry.
500 to 1000 nM

Identify IC50 associated with the compound Nc1ccc(-c2ccc(F)s2)nc1NC(=O)N1CC(Cc2ncc(F)cn2)C1 [Compound 61]
1000 to 2000 nM

Write down IC50 measured for item Nc1ccc(-c2ccc(F)cc2F)nc1NC(=O)N1CC(Cc2cccc3nccn23)C1 [Compound 48]
> 2000 nM

Name the recorded IC50 of the compound listed here: Cc1ccnc(CC2CN(C(=O)Nc3nc(-c4ccc(F)cc4)ccc3N)C2)n1 [Compound 72]
1000 to 2000 nM

Return the recorded IC50 value; entry: Nc1ccc(-c2ccc(F)cc2)nc1NC(=O)N1CC(Cc2ncc(C(F)(F)F)cn2)C1 [Compound 84]
> 2000 nM

Quick one: give measured IC50 for Nc1ccc(-c2ccc(F)cc2F)nc1NC(=O)N1CC(OCc2ccccn2)C1 [Compound 29]
> 2000 nM

Give me measured IC50, please, for this compound: Cc1ccnc(CC2CN(C(=O)Nc3nc(-c4ccc(F)cc4F)ccc3N)C2)n1 [Compound 11]
500 to 1000 nM

Tell me IC50 reported for CCC(c1ncccn1)C1CN(C(=O)Nc2nc(-c3ccc(F)cc3F)ccc2N)C1 (stereo not drawn) [Compound 56]
> 2000 nM
